pKd: recorded values
Target: Aβ1-42 fibers (human)
Experiment: SPR
Recall that pKd is obtained by taking minus log10 of the concentration measured in molar.

INSERT INTO results (binder, reported_value) VALUES
  ('MS-R 3.6H5 x 3.6L1 Fab (antibody, V domains shown) VH: QLVESGGGLVQPGGSLRLSCAASGFTFSSYAMSWVRQAPGKGLEWVSAISESGKTKYYADSVKGRFTISRDNSKNTLYLQMNSLRAEDTAVYYCARLTHYARYYRYFDVWGQGTLVTVSS VL: DIVLTQSPATLSLSPGERATLSCRASQFIQRFYLAWYQQKPGQAPRLLIYGASSRATGVPARFSGSGSGTDFTLTISSLEPEDFAVYYCQQTYNYPPTFGQGTKVEIKR', 8.98);

Reported pKd for MS-R 3.4H7 x 3.4L7 Fab (antibody, V domains shown) VH: QLVESGGGLVQPGGSLRLSCAASGFTFSSYAMSWVRQAPGKGLEWVSVISETGKNIYYADSVKGRFTISRDNSKNTLYLQMNSLRAEDTAVYYCARLTHYARYYRYFDVWGQGTLVTVSS VL: DIVLTQSPATLSLSPGERATLSCRASQRLGRLYLAWYQQKPGQAPRLLIYGASSRATGVPARFSGSGSGTDFTLTISSLEPEDFATYYCQQTYDYPPTFGQGTKVEIKR was 8.91

Form: binder = MS-R 3.3H1 x 3.4L9 Fab (antibody, V domains shown) VH: QLVESGGGLVQPGGSLRLSCAASGFTFSSYAMSWVRQAPGKGLEWVSVISEKSRFIYYADSVKGRFTISRDNSKNTLYLQMNSLRAEDTAVYYCARLTHYARYYRYFDVWGQGTLVTVSS VL: DIVLTQSPATLSLSPGERATLSCRASRRIHVYYLAWYQQKPGQAPRLLIYGASSRATGVPARFSGSGSGTDFTLTISSLEPEDFATYYCQQTYDYPPTFGQGTKVEIKR ; pKd = 8.53
